- System: Trypanosoma brucei
- assay.info: Trypanosoma brucei 72 hour study
- Format: functional, organism-based
- Design: scale not given: in the data most compounds retested in dose-response had high values
- condition.label: 30 µM; 30.03 µM
About 960 (1.5%) of roughly 66,000 compounds showed an effect of 50% or more. This excerpt belongs to a sample that is enriched for strong results.
Labels assigned by Percent Effect range: bottom range: < -20%; center range: ≥ -20% and < 20%; top range: ≥ 20%

compound: CNC(=O)C1CCN(Cc2nc(-c3ccc(SC)cc3)oc2C)C1 (stereo not drawn)
tested.target: Trypanosoma brucei
label.class: center range
//
compound: Fc1ccc(CN2CCc3ncnc(C4CC4)c3CC2)cc1.O=C(O)C(F)(F)F
tested.target: Trypanosoma brucei
label.class: center range
//
compound: CSc1ccc(-c2nc(CN3CCC(NC(C)=O)CC3)c(C)o2)cc1
tested.target: Trypanosoma brucei
label.class: top range
//
compound: COCCCN1Cc2cccc(NC(=O)c3ccccc3Cl)c2C1
tested.target: Trypanosoma brucei
label.class: center range
//
compound: Br.CCOc1ccc(Br)cc1C1CCCN1 (stereo not drawn)
tested.target: Trypanosoma brucei
label.class: bottom range
//
compound: Cc1cccc(CN2CCc3ncnc(NC4CCC4)c3CC2)n1.O=C(O)C(F)(F)F.O=C(O)C(F)(F)F
tested.target: Trypanosoma brucei
label.class: center range
//
compound: CCCc1nnc(NCCc2noc(C3CCCC3)n2)o1
tested.target: Trypanosoma brucei
label.class: bottom range
//
compound: CCc1ccc(CN(Cc2ccco2)C(C)C(C)C)nc1 (stereo not drawn)
tested.target: Trypanosoma brucei
label.class: center range
//
compound: CC(=O)NCC1CCN(C(=O)c2csc(-c3ccc(C)cc3C)n2)CC1
tested.target: Trypanosoma brucei
label.class: top range
//
compound: Cc1nc(C)n(C2CCCN(C(=O)c3ccc(F)cc3F)C2)n1 (stereo not drawn)
tested.target: Trypanosoma brucei
label.class: center range
//
compound: Cc1cc(C)n(C2CCCN(C(=O)c3cccc(F)c3F)C2)n1 (stereo not drawn)
tested.target: Trypanosoma brucei
label.class: bottom range
//
compound: Cc1cc(C)n(C2CCCN(C(=O)c3ccc(F)cc3F)C2)n1 (stereo not drawn)
tested.target: Trypanosoma brucei
label.class: top range
//
compound: Cc1ccc(CN2Cc3c(C(=O)N4CCCC4)nn(C)c3C2)s1.O=C(O)C(F)(F)F
tested.target: Trypanosoma brucei
label.class: bottom range
//
compound: Cc1noc(C)c1CN1C[C@H](OCc2ccncc2)[C@H]2OCCC[C@H]21.O=C(O)C(F)(F)F.O=C(O)C(F)(F)F
tested.target: Trypanosoma brucei
label.class: center range
//
compound: CN(C)C(=O)COC[C@@H]1CC[C@H]2[C@H](CCN2c2ncccn2)O1.O=C(O)C(F)(F)F
tested.target: Trypanosoma brucei
label.class: center range
//
compound: Cc1cc(C)c(C#N)c(NCCn2cnnc2C(C)C)n1
tested.target: Trypanosoma brucei
label.class: bottom range
//
compound: CC(C)(C)S(=O)(=O)CCNC(=O)c1ccc2ccccc2c1
tested.target: Trypanosoma brucei
label.class: center range
//
compound: CC(C)(C)S(=O)(=O)CCNC(=O)c1ccc2cc[nH]c2c1
tested.target: Trypanosoma brucei
label.class: top range
//
compound: COc1ccccc1CN(C)C(=O)CN1CC(n2nc(C)cc2C)C1
tested.target: Trypanosoma brucei
label.class: top range
//
compound: Clc1cccc(N2CCC(NCc3cc[nH]n3)C2)c1 (stereo not drawn)
tested.target: Trypanosoma brucei
label.class: center range
//
compound: NC(=O)c1ccccc1NC(=O)CCN1CCN(c2ccccc2)CC1
tested.target: Trypanosoma brucei
label.class: center range
//
compound: CC(C)C(=O)NC1CCN(Cc2cccc3c2OCCO3)CC1
tested.target: Trypanosoma brucei
label.class: center range
//
compound: O=C(O)C(F)(F)F.O=C(c1ccccn1)N1CCC2(CC1)COC(COCC1CC1)C2 (stereo not drawn)
tested.target: Trypanosoma brucei
label.class: top range
//
compound: CC(C)CC(=O)N1CC[C@H]2N(C)CC[C@@]2(C(=O)Nc2ccccc2)CC1.O=C(O)C(F)(F)F
tested.target: Trypanosoma brucei
label.class: center range
//
compound: CC(C)C(C)N(Cc1ccccn1)Cc1ccco1 (stereo not drawn)
tested.target: Trypanosoma brucei
label.class: bottom range
//
compound: CC(C)(C)OC(=O)NCCNC(=O)c1ccc2cc[nH]c2c1
tested.target: Trypanosoma brucei
label.class: center range
//
compound: Cc1ccc(C(=O)N2CCC3(CC2)COC(COc2cccnc2)C3)o1.O=C(O)C(F)(F)F (stereo not drawn)
tested.target: Trypanosoma brucei
label.class: top range
//
compound: O=C(c1cccs1)N1CCC2(C1)c1ccccc1S(=O)(=O)N2CC1CC1 (stereo not drawn)
tested.target: Trypanosoma brucei
label.class: center range
//
compound: CC(C)CN1CCC(NC(=O)c2ccc(Cl)cc2Cl)CC1
tested.target: Trypanosoma brucei
label.class: center range
//
compound: Cc1nccc(N[C@H]2CN(C(=O)CN3CCCC3=O)C[C@@H]2C(C)C)n1
tested.target: Trypanosoma brucei
label.class: center range
//
compound: O=C(NCCN1CCOCC1)c1cc(-c2ccc3c(c2)CCO3)n[nH]1
tested.target: Trypanosoma brucei
label.class: top range
//
compound: CSc1ccc(-c2nc(CN3CCC(C(N)=O)CC3)c(C)o2)cc1
tested.target: Trypanosoma brucei
label.class: top range
//
compound: COCCCN1Cc2cccc(NC(=O)c3cc(F)ccc3F)c2C1
tested.target: Trypanosoma brucei
label.class: top range
//
compound: CC(=O)N1CCCN(C(=O)c2csc(-c3ccc(C)cc3C)n2)CC1
tested.target: Trypanosoma brucei
label.class: top range
//
compound: O=C(NCCCO)c1cc(-c2ccc3c(c2)CCO3)n[nH]1
tested.target: Trypanosoma brucei
label.class: center range
//
compound: O=C(NCCCN1CCOCC1)c1cc(-c2ccc3c(c2)CCO3)n[nH]1
tested.target: Trypanosoma brucei
label.class: top range
//
compound: COCCCN1Cc2cccc(NC(=O)c3cc(F)cc(F)c3)c2C1
tested.target: Trypanosoma brucei
label.class: top range
//
compound: O=C(NCC1OCCc2cn(CC3CCOCC3)nc21)c1ccsc1.O=C(O)C(F)(F)F (stereo not drawn)
tested.target: Trypanosoma brucei
label.class: bottom range
//
compound: Cc1ccc(C(=O)N(C)Cc2cc(Br)cs2)cn1
tested.target: Trypanosoma brucei
label.class: center range
//
compound: CN(Cc1ccccn1)C1CC2(CCN(Cc3cccnc3)CC2)C1.O=C(O)C(F)(F)F.O=C(O)C(F)(F)F.O=C(O)C(F)(F)F
tested.target: Trypanosoma brucei
label.class: center range
//
compound: CCCc1nnc(NCCc2noc(C3CCC3)n2)o1
tested.target: Trypanosoma brucei
label.class: center range
//
compound: Cn1cc(CN2CCC3(CC2)NC(=O)CC3c2ccncc2)cn1.O=C(O)C(F)(F)F.O=C(O)C(F)(F)F (stereo not drawn)
tested.target: Trypanosoma brucei
label.class: top range

---

- System: Trypanosoma brucei
- assay.info: Trypanosoma brucei 72 hour study
- Assay type: functional, organism-based
- Set-up: scale not given: in the data most compounds retested in dose-response had high values
- condition.label: 30 µM; 30.03 µM
The whole screen tested about 66,000 compounds, of which about 960 (1.5%) showed an effect of 50% or more. This excerpt belongs to a sample that is enriched for strong results.
outcome.measure: Percent Effect (%)

compound: COC(=O)c1ccc(N2CCN(C(=O)C3CCC3)C(C)C2)cc1 (configuration not stated)
outcome.measure: Percent Effect
endpoint.value: 50.56
--
compound: Cc1cc(=O)[nH]c(-n2nc(-c3cccs3)cc2N)n1
outcome.measure: Percent Effect
endpoint.value: -18.7
--
compound: CCC(=O)N1CCN(c2ccc(C(=O)OC)cc2)CC1C (configuration not stated)
outcome.measure: Percent Effect
endpoint.value: 6.915
--
compound: CCc1c(C)nc(-n2nc(-c3cccs3)cc2N)[nH]c1=O
outcome.measure: Percent Effect
endpoint.value: 63.75
--
compound: Cn1cc(CN2CCCC(CCc3ccc(F)c(F)c3)C2)cn1 (configuration not stated)
outcome.measure: Percent Effect
endpoint.value: -1.052
--
compound: CCCNCc1ccc(OCc2ccc3c(c2)OCCO3)cc1.Cl
outcome.measure: Percent Effect
endpoint.value: 56.18
--
compound: Cc1nc(CN2CCCC(CCc3ccc(F)cc3F)C2)c[nH]1 (configuration not stated)
outcome.measure: Percent Effect
endpoint.value: 47.76
--
compound: COC(=O)c1ccc(N2CCN(C(=O)C3CC3)C(C)C2)cc1 (configuration not stated)
outcome.measure: Percent Effect
endpoint.value: -2.442
--
compound: CNC(=O)CN(C)c1cncc(OCC(C)C)n1
outcome.measure: Percent Effect
endpoint.value: -18.74
--
compound: Cc1nc(CN2CCCC(CCc3c(F)cccc3F)C2)c[nH]1 (configuration not stated)
outcome.measure: Percent Effect
endpoint.value: 77.03
--
compound: CCNCc1ccc(OCc2ccc3c(c2)OCCO3)cc1.Cl
outcome.measure: Percent Effect
endpoint.value: -18.34
--
compound: Cc1nc(-n2nc(-c3cccs3)cc2N)[nH]c(=O)c1C
outcome.measure: Percent Effect
endpoint.value: 6.214

The reported numbers originate from ChEMBL document CHEMBL3988442.
